# target.of.assay: anti-H3K9me3 antibody ab8898
# test.method.notes: peptide microarray binding signal (635 nm), min-max normalized on array (fraction of array maximum); higher = stronger binding
# reported.conditions: peptide region: Unmod H2A variant; binder concentration: 1:2,000 dilution
endpoint.label: peptide microarray binding signal
Just the number, please, no unit attached.

Inquiry: Please report peptide microarray binding signal for the following binder: RNDEELNKLLGRV [Unmod H2A variant R N D E E L N K L L G R V]
Reply text: 0.000604

Inquiry: Identify peptide microarray binding signal associated with the binder VTIAQGGVLPNIQ [Unmod H2A variant V T I A Q G G V L P N I Q]
Reply text: 0.00338

Inquiry: Provide peptide microarray binding signal value for the following binder: RAKSKSRSSRAGL [Unmod H2A variant R A K S K S R S S R A G L]
Reply text: 0.000559

Inquiry: Tell me measured peptide microarray binding signal for GVLPNIQAVLLPK [Unmod H2A variant G V L P N I Q A V L L P K] please.
Reply text: 0.00384

Inquiry: State its peptide microarray binding signal: AGLQFPVGRIHRL [Unmod H2A variant A G L Q F P V G R I H R L]
Reply text: 0.00281

Inquiry: Give the reported peptide microarray binding signal for this binder. RAKAKSRSSRAGL [Unmod H2A variant R A K A K S R S S R A G L]
Reply text: 0.000438

Inquiry: Respond only with peptide microarray binding signal recorded for LNKLLGGVTIAQG [Unmod H2A variant L N K L L G G V T I A Q G]
Reply text: 0.0011

Hey, just so you know, these numbers are from the supplement of paper PMC4022240.
